experiment: in vitro
test_context: human, plasma
assay_metric: metabolised at 1 h (%)
A number alone suffices; assume %.

## Input Could you tell me which metabolised at 1 h is on file for CC=CC=CC(=O)OC(C)OC(=O)C(C)c1ccc(-c2ccccc2)c(F)c1 (stereo not shown) [Compound 9] ?
## Output 20.4

* * *

Tested on: carrageenan-induced edema
experiment: Inhibitory effect on carrageenan-induced edema
Assay type: in vivo, Wistar male rats
test_context: Rattus norvegicus, po; Table 2; Wistar male rats, p.o. one hour before carrageenan, measured 3 hours after carrageenan; read-out: ED50, carrageenan-induced edema
assay_metric: ED50 (mg/kg)
Value expressed in mg/kg; do not type the unit.

Observe how each entry below is paired with its result.
{"compound": "CC=CC=CC(=O)OC(C)OC(=O)C(C)c1ccc(-c2ccccc2)c(F)c1 (stereo not shown) [Compound 9]", "experimental_system": "carrageenan-induced edema", "unit_info": "mg/kg", "ED50": 2}
{"compound": "CC(C)=CC(=O)OC(C)OC(=O)C(C)c1ccc(-c2ccccc2)c(F)c1 (stereo not shown) [Compound 8]", "experimental_system": "carrageenan-induced edema", "unit_info": "mg/kg", "ED50": 2.5}

// below: ED50 requested for another compound
## Input Look at this compound and give its reported ED50. CC(OC(=O)C(C)c1ccc(-c2ccccc2)c(F)c1)OC(=O)C(C)(C)C (stereo not shown) [Compound 4]
## Output 2.5

* * *

experiment: Hydrolysis of FP derivatives in rat plasma
Format: in vitro ADME
test_context: Table 4; rat plasma (Compound No. 10), 37° C., one hour, amount corresponding to 50 μg. of FP per 1 ml.; read-out: Hydrolyzing rate
assay_metric: metabolised at 1 h (%)
Express it in %; write the number only.

## Input Given the entry CC(C(=O)OC1C(=O)OCC1(C)C)c1ccc(-c2ccccc2)c(F)c1 (stereo not shown) [Compound 10] , report its measured metabolised at 1 h.
## Output 72.3

* * *

Tested on: carrageenan-induced edema
experiment: Inhibitory effect on carrageenan-induced edema
Format: in vivo, Wistar male rats
test_context: Rattus norvegicus, iv, read-out: ED50 (50% effective dose), carrageenan-induced edema inhibition
assay_metric: ED50 (mg/kg)
Numeric answer only, unit mg/kg assumed.

Examples from the recorded data:
{"compound": "CC(=O)OC(C)OC(=O)C(C)c1ccc(-c2ccccc2)c(F)c1 (stereo not drawn)", "experimental_system": "carrageenan-induced edema", "assay_metric": "ED50", "data_value": 0.05}
{"compound": "CCC(OC(C)=O)OC(=O)C(C)c1ccc(-c2ccccc2)c(F)c1 (stereo not drawn)", "experimental_system": "carrageenan-induced edema", "assay_metric": "ED50", "data_value": 0.1}
{"compound": "CC(OC(=O)C(C)C)OC(=O)C(C)c1ccc(-c2ccccc2)c(F)c1 (stereo not drawn)", "experimental_system": "carrageenan-induced edema", "assay_metric": "ED50", "data_value": 0.1}

## Input Consider the compound CC(C(=O)OC1C(=O)OCC1(C)C)c1ccc(-c2ccccc2)c(F)c1 (stereo not drawn) and give its measured ED50.
## Output 0.05

## Input Field request: ED50 | item: CCC(=O)OC(C)OC(=O)C(C)c1ccc(-c2ccccc2)c(F)c1 (stereo not drawn)
## Output 0.06

## Input I am curious: what ED50 value has been reported for C/C=C/C(=O)OC(C)OC(=O)C(C)c1ccc(-c2ccccc2)c(F)c1 (stereo not drawn) ?
## Output 0.08
